experiment: Metabolic stability in whole blood; details: mouse
Observable: remaining at 0 h (%)
Numbers only, in %.

Input CC(C)[N+](C)(CCOC(=O)C1c2ccccc2Oc2ccccc21)C(C)C [Propantheline bromide] . Output remaining at 0 h: 100

====

assay: Metabolic stability in whole blood; settings: mouse
Observable: remaining at 0.25 h
Don't forget the unit after the value.

Input CC(C)[N+](C)(CCOC(=O)C1c2ccccc2Oc2ccccc21)C(C)C [Propantheline bromide] . Output remaining at 0.25 h: 66%

====

experiment: Metabolic stability in whole blood; conditions: mouse
Observable: remaining at 1 h
Don't forget the unit after the value.

Input CC(C)[N+](C)(CCOC(=O)C1c2ccccc2Oc2ccccc21)C(C)C [Propantheline bromide] . Output remaining at 1 h: 21.8%

====

assay: Metabolic stability in whole blood; conditions: mouse
Observable: half-life
Don't forget the unit after the value.

Input CC(C)[N+](C)(CCOC(=O)C1c2ccccc2Oc2ccccc21)C(C)C [Propantheline bromide] . Output half-life: 32.1 min
